Recorded Inhibition, one value per entry.
Tested on: Candida albicans
setup.conditions: 20 µM
Description: Antifungal activity against Candida albicans ATCC 90028 (CO-ADD:FG_001); MIC in YNB media using NBS plates, by OD630
Results with a measured potency or affinity are listed apart.

[
  {
    "compound": "Oc1cc(-c2nn[nH]n2)nc(O)n1",
    "measured.target": "Candida albicans",
    "Inhibition": "1.84%"
  },
  {
    "compound": "Cc1ccc(-n2nnnc2-c2cccnc2)cc1",
    "measured.target": "Candida albicans",
    "Inhibition": "-0.65%"
  },
  {
    "compound": "OCC1CCCC(n2cnc3c(S)ncnc32)O1 (stereo unspecified)",
    "measured.target": "Candida albicans",
    "Inhibition": "14%"
  },
  {
    "compound": "Nc1ccc(NC(=O)c2ccc(C(=O)Nc3ccc(N)cc3)cc2)cc1",
    "measured.target": "Candida albicans",
    "Inhibition": "40.4%"
  },
  {
    "compound": "O=C(O)c1nc2nc(Cl)c(Cl)nc2[nH]1",
    "measured.target": "Candida albicans",
    "Inhibition": "3.92%"
  },
  {
    "compound": "Cn1ncc2c(Nc3ccc(Br)cc3)nc(Nc3ccc(Br)cc3)nc21",
    "measured.target": "Candida albicans",
    "Inhibition": "-0.11%"
  }
]

---

Recorded Inhibition, one value per entry.
Tested on: Klebsiella pneumoniae
setup.conditions: Concentration 20 uM; ASSAY_TEST Inhibition of Bacterial Growth; detection method Absorption (OD600); MEDIA CAMHB; plate type 384well; NBS; CORNING #3640; time 18 hr
Description: Antibacterial activity against Klebsiella pneumoniae MDR ATCC 70063 (CO-ADD:GN_003); MIC in CAMBH media using NBS plates, by OD(600)
Entries with a potency or affinity are not part of this list.

[
  {
    "compound": "Nc1cc(-c2ccccc2)ccc1O",
    "unit.annotation": "%",
    "Inhibition": 17.45
  },
  {
    "compound": "COc1ccc(NC2=NC(C)(CO)CS2)cc1 (stereo unspecified)",
    "unit.annotation": "%",
    "Inhibition": 15.06
  },
  {
    "compound": "Oc1ccccc1-n1c(-c2ccccc2)ccc1-c1ccccc1",
    "unit.annotation": "%",
    "Inhibition": 19.15
  },
  {
    "compound": "c1cc2c3c(cccc3c1)NC1(CCC3(CC1)Nc1cccc4cccc(c14)N3)N2",
    "unit.annotation": "%",
    "Inhibition": 19.89
  },
  {
    "compound": "Cc1c(Cc2ccccc2)[n+]([O-])c2ccccc2[n+]1[O-]",
    "unit.annotation": "%",
    "Inhibition": -6.69
  },
  {
    "compound": "Cc1nc(O)c2c3c(sc2n1)CCCC3",
    "unit.annotation": "%",
    "Inhibition": -0.52
  },
  {
    "compound": "CC(=O)Nc1ccc(S(=O)(=O)N/N=c2/sc3ccccc3n2C)cc1N",
    "unit.annotation": "%",
    "Inhibition": 3.38
  },
  {
    "compound": "COC(=O)c1ccccc1NCCO",
    "unit.annotation": "%",
    "Inhibition": 7.33
  },
  {
    "compound": "O=[N+]([O-])c1ccc(Cn2cnc3c(O)ncnc32)cc1",
    "unit.annotation": "%",
    "Inhibition": 11.73
  },
  {
    "compound": "COc1cccc(-c2nnc(N)o2)c1",
    "unit.annotation": "%",
    "Inhibition": 8.97
  },
  {
    "compound": "CCCCn1c(OC(=S)N(CC)CC)cc(C)nc1=S",
    "unit.annotation": "%",
    "Inhibition": 13.25
  },
  {
    "compound": "O=C(CC1C=Cc2ccccc2N1C(=O)c1ccccc1)c1ccccc1 (stereo unspecified)",
    "unit.annotation": "%",
    "Inhibition": 9.71
  },
  {
    "compound": "COc1ccc2nc3cc(Cl)ccc3c(C#N)c2c1",
    "unit.annotation": "%",
    "Inhibition": 7.74
  },
  {
    "compound": "CC(=O)OCCN1c2ccccc2Sc2cnccc21",
    "unit.annotation": "%",
    "Inhibition": 5.46
  },
  {
    "compound": "Cc1ccc(/N=N/c2c(N)nn(-c3ccccc3)c2N)cc1",
    "unit.annotation": "%",
    "Inhibition": 11.62
  },
  {
    "compound": "Cc1cc(O)cc2c1[C@H]1CC[C@]3(C)C(=O)CC[C@H]3[C@@H]1C=C2",
    "unit.annotation": "%",
    "Inhibition": -0.57
  }
]

---

Tested on: Acinetobacter baumannii
experimental.details: Antibacterial activity against Acinetobacter baumannii ATCC 19606 (CO-ADD:GN_034); MIC in CAMBH media using NBS plates, by Resazurin F(560/590)
Assay type: functional
setup.conditions: Concentration 20 uM, ASSAY_TEST Inhibition of Bacterial Growth, detection method Resazurin, Fluorescence (ex560/em590), MEDIA CAMHB, plate type 384well, CORNING #3640, time 18 hr

[
  {
    "compound": "Nc1cc(-c2ccccc2)ccc1O",
    "Inhibition / %": -7.9
  },
  {
    "compound": "Cc1ccc(CC#N)c(-c2c(CC#N)ccc(C)c2C)c1C",
    "Inhibition / %": -9.1
  },
  {
    "compound": "COc1ccc(NC2=NC(C)(CO)CS2)cc1 (centres undefined)",
    "Inhibition / %": -4.98
  },
  {
    "compound": "Cn1c(=O)c2nc(CNc3ccc(C(=O)O)cc3)[nH]c2n(C)c1=O",
    "Inhibition / %": 2.67
  }
]

---

System: Staphylococcus aureus
experimental.details: Antibacterial activity against Staphylococcus aureus MRSA ATCC 43300 (CO-ADD:GP_020); MIC in CAMBH media using NBS plates, by Resazurin F(560/590)
Type: functional
setup.conditions: Concentration 20 uM, ASSAY_TEST Inhibition of Bacterial Growth, detection method Resazurin, Fluorescence (ex560/em590), MEDIA CAMHB, plate type 384well, CORNING #3640, time 18 hr

[
  {
    "compound": "CCOC(=O)c1csc(-c2ccc(COC(=O)c3ccccc3)o2)n1",
    "unit.annotation": "%",
    "Inhibition": 13.59
  },
  {
    "compound": "O=C(c1ccccc1)C1C(c2ccccc2)C1[N+](=O)[O-] (centres undefined)",
    "unit.annotation": "%",
    "Inhibition": 0.24
  },
  {
    "compound": "NS(=O)(=O)c1ccc(Nc2ccccc2)c([N+](=O)[O-])c1",
    "unit.annotation": "%",
    "Inhibition": 4.64
  },
  {
    "compound": "CSc1nc(O)c(Nc2cccc(Cl)c2)c(O)n1",
    "unit.annotation": "%",
    "Inhibition": 7.02
  },
  {
    "compound": "Cc1ccc(C2C=CC(C#N)=CN2Cc2ccccc2)cc1 (centres undefined)",
    "unit.annotation": "%",
    "Inhibition": 18.9
  },
  {
    "compound": "COc1cc2c(cc1OC)C(C1(O)CCCCC1)NCC2 (centres undefined)",
    "unit.annotation": "%",
    "Inhibition": 18.67
  },
  {
    "compound": "c1ccc2c(c1)Nc1cc3ccccc3cc1S2",
    "unit.annotation": "%",
    "Inhibition": 1.39
  },
  {
    "compound": "Cc1cc(N(C)C)ccc1/N=N/c1ccc2ncccc2c1",
    "unit.annotation": "%",
    "Inhibition": 1.18
  },
  {
    "compound": "CCOC(=O)c1c(C)c(C(=O)OCC)n(C)c1C",
    "unit.annotation": "%",
    "Inhibition": 8.23
  },
  {
    "compound": "O=c1[nH]c(=S)c2nc(S)n(-c3ccccc3)c2[nH]1",
    "unit.annotation": "%",
    "Inhibition": 13.04
  },
  {
    "compound": "Cc1c(NC(=O)Nc2c(Cl)cccc2Cl)c(=O)n(-c2ccccc2)n1C",
    "unit.annotation": "%",
    "Inhibition": 9.25
  },
  {
    "compound": "COc1ccc(NC(=O)N2CCN(C(=O)Nc3ccc(OC)cc3)CC2)cc1",
    "unit.annotation": "%",
    "Inhibition": 0.79
  },
  {
    "compound": "COc1cc(NCc2ccccc2O)c2ncccc2c1",
    "unit.annotation": "%",
    "Inhibition": -0.91
  },
  {
    "compound": "NNC(=O)c1nnsc1-c1csnn1",
    "unit.annotation": "%",
    "Inhibition": -28.09
  },
  {
    "compound": "CC(C)c1cc(C(C)C)n2nc(N)nc2n1",
    "unit.annotation": "%",
    "Inhibition": 6.67
  },
  {
    "compound": "C(COC1CC2CC1C1C2CC2OC21)OC1CC2CC1C1C2CC2OC21 (centres undefined)",
    "unit.annotation": "%",
    "Inhibition": 7.31
  },
  {
    "compound": "Cc1ccc([N+](=O)[O-])cc1NC(=O)Nc1ccc(S(N)(=O)=O)cc1",
    "unit.annotation": "%",
    "Inhibition": 2.59
  },
  {
    "compound": "COc1ccc(/C(C#N)=C/c2cccnc2)cc1",
    "unit.annotation": "%",
    "Inhibition": 17.02
  },
  {
    "compound": "S=C1N(c2ccccc2)CN(C2CCCCC2)CN1c1ccccc1",
    "unit.annotation": "%",
    "Inhibition": 0.84
  }
]

Just for reference, ChEMBL document CHEMBL4296182 is where these values come from.
